Test Method Notes: Stability test of QC samples
Type: physicochemical, rat
Condition Description: Store at room temperature for 12 h; medium concentration QC sample in rat plasma
Readout Label: Stability, Accuracy (RE, %)
Answer with a number only, understood to be in %.

| Smiles Data | Stability, Accuracy (RE, %) |
| --- | --- |
| O=C(/C=C/c1ccc(O)c2oc(-c3ccc(O)c(O)c3)cc12)O[C@H](Cc1ccc(O)c(O)c1)C(=O)O | 1.94 |
| O=C(/C=C/c1ccc(O)c(O)c1/C=C/c1ccc(O)c(O)c1)O[C@H](Cc1ccc(O)c(O)c1)C(=O)O | −3.89 |
| O=C(O)/C=C/c1ccc(O)c(O)c1 | 2.52 |
| O=C(/C=C/c1ccc(O)c2c1[C@H](C(=O)O)[C@@H](c1ccc(O)c(O)c1)O2)O[C@H](Cc1ccc(O)c(O)c1)C(=O)O | 0.69 |
| C[C@@H]1O[C@@H](OC[C@H]2O[C@@H](Oc3c(-c4ccc(O)c(O)c4)oc4cc(O)cc(O)c4c3=O)[C@H](O)[C@@H](O)[C@@H]2O)[C@H](O)[C@H](O)[C@H]1O | 0.45 |
| O=C(O)[C@H](O)Cc1ccc(O)c(O)c1 | 1.50 |

Turning now to a further record.
State its Stability, Accuracy (RE, %) for this compound: O=C(/C=C/c1ccc(O)c(O)c1)O[C@H](Cc1ccc(O)c(O)c1)C(=O)O −0.80
